The compounds listed here are annotated with their viability at 18 h, 25 µM.
assay.info: Cytotoxicity against mouse RAW264.7 cells assessed as cell viability at 25 uM after 18 hrs by CCK-8 assay
Assay type: cell-based
conditions.used: read-out: Activity
measurement.name: viability at 18 h, 25 µM (%)

{"molecule": "O=C(OC1CCC1)[C@H]1[C@H](c2ccc(O)cc2)[C@H](C(=O)OC2CCC2)[C@H]1c1ccc(O)cc1", "measurement.name": "viability at 18 h, 25 µM", "endpoint.value": 62.6}
{"molecule": "CSCCOC(=O)[C@H]1[C@H](c2ccc(O)cc2)[C@H](C(=O)OCCSC)[C@H]1c1ccc(O)cc1", "measurement.name": "viability at 18 h, 25 µM", "endpoint.value": 100}
{"molecule": "CCC[C@H]1CC[C@H]([C@H]2CC[C@H](OC(=O)[C@H]3[C@H](c4ccc(O)cc4)[C@H](C(=O)O[C@H]4CC[C@H]([C@H]5CC[C@H](CCC)CC5)CC4)[C@H]3c3ccc(O)cc3)CC2)CC1", "measurement.name": "viability at 18 h, 25 µM", "endpoint.value": 100}
{"molecule": "C#CCOCCOC(=O)[C@H]1[C@H](c2ccc(O)cc2)[C@H](C(=O)OCCOCC#C)[C@H]1c1ccc(O)cc1", "measurement.name": "viability at 18 h, 25 µM", "endpoint.value": 100}
{"molecule": "CC(C)[C@H]1CC[C@H](C)C[C@@H]1OC(=O)[C@H]1[C@H](c2ccc(O)cc2)[C@H](C(=O)O[C@H]2C[C@@H](C)CC[C@@H]2C(C)C)[C@H]1c1ccc(O)cc1", "measurement.name": "viability at 18 h, 25 µM", "endpoint.value": 90}
{"molecule": "CCOCCOCCOCCOC(=O)[C@H]1[C@H](c2ccc(O)cc2)[C@H](C(=O)OCCOCCOCCOCC)[C@H]1c1ccc(O)cc1", "measurement.name": "viability at 18 h, 25 µM", "endpoint.value": 100}
{"molecule": "C=C(C)COC(=O)[C@H]1[C@H](c2ccc(O)cc2)[C@H](C(=O)OCC(=C)C)[C@H]1c1ccc(O)cc1", "measurement.name": "viability at 18 h, 25 µM", "endpoint.value": 100}
